All values here come from patent US20250276077A1.

Subject Of Test: Human EphA2 (ephrin receptor A2) on cells (human, UniProt P29317 25-976)
Sequence (P29317 25-976): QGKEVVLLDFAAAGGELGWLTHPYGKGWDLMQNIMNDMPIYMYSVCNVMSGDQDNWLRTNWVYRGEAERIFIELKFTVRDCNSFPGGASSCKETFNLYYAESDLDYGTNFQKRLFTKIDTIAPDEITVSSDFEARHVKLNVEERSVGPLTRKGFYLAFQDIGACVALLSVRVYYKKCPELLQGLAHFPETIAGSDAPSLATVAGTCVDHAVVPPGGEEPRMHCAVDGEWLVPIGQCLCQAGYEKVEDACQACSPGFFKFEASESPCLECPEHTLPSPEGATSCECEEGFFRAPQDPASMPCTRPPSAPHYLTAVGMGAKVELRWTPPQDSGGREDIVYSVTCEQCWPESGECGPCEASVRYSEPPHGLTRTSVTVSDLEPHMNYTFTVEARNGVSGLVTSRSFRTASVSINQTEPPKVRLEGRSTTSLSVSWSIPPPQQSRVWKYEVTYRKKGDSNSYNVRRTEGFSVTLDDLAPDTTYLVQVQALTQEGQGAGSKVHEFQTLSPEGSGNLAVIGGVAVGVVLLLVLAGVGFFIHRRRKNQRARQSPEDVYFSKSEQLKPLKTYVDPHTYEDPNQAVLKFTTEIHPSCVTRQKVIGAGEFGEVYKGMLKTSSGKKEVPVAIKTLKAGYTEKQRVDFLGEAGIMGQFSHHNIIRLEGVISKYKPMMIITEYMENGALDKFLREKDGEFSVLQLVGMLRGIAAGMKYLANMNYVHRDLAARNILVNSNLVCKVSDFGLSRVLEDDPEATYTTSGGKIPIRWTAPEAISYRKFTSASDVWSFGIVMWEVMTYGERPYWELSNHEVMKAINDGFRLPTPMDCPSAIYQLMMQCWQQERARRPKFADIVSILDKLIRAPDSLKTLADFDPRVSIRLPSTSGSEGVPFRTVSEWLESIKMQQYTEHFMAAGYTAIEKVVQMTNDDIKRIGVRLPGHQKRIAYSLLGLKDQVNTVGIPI
Assay Comment: cell-based or functional assay
Reported Endpoint: ADCC - EC50 (nM), Trial 1, A549
Number only, in nM; omit the unit.

IN: Fill in the blank: the reported ADCC - EC50 (nM), Trial 1, A549 of AB-010661 (antibody, V domains shown) VH: QVQLQQWGAGLLKPSETLSLTCAVYGGSFSDYYWSWIRQPPGKGLEWIGEINHRGSINYNNYNPSLKSRVTISVDTSKNQFSLKLSSVTAADTAVYYCAKPLRPHCINGVCYSGDAFDIWGQGTMVTVAS VL: SYVLTQPPSVSVAPGQTARITCRGNNIGSKNVHWYQQKPGQAPVLVVYDDSDRPSGIPEQFSGSNSGNTATLTISRVEAGDEADYYCQVWDSSSDHVVFGGGTKLTVL is ____.
OUT: 5.7
